Target: Stb5 (UniProt P38699)
Sequence: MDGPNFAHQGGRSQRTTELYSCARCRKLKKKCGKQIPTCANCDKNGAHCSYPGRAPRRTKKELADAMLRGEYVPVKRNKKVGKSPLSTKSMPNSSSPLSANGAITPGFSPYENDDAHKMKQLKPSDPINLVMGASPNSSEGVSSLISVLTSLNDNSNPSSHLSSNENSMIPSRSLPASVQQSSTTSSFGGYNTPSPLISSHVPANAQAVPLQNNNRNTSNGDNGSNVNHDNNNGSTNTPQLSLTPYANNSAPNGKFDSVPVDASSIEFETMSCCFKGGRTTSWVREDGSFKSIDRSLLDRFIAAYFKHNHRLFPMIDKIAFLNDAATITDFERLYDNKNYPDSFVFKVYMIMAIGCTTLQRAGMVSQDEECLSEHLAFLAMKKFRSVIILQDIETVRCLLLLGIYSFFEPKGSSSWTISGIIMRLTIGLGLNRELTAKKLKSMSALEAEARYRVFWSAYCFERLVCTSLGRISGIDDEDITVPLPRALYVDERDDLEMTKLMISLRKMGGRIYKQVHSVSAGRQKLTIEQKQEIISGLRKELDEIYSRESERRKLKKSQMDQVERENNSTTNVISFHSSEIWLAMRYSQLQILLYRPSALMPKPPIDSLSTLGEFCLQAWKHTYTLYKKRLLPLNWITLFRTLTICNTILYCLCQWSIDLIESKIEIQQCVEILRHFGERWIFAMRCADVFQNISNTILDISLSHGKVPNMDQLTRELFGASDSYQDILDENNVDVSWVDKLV
Assay: PBM E-score (8-mer binding enrichment) (E-score (-0.5 to 0.5)); higher = stronger / more preferred TF binding
Conditions: protein concentration: 200 nM; construct: GST-full length
Whole data set: some 33,000 sequences, median “E-score (-0.5 to 0.5)” near -0.054, cut for the highest 2% near 0.35. This is one part of a sample in which the highest values are shown more often than they occur.
Cut-off 0.3 on PBM E-score, inclusive. At or above means Met; below means Not met.

q: hey, is PBM E-score for this one >= 0.3? CGGAGTCA
a: Met

q: Same question, CAATGCCG this time
a: Met

q: Same question, AGCCATAC this time
a: Not met

q: Same question, CGGAGTGA this time
a: Met

q: Same question, GGCGGTAC this time
a: Met

q: Same question, AAATGCCC this time
a: Not met

q: Same question, AATTGCCA this time
a: Not met

q: Same question, AATTGCCC this time
a: Not met

q: Same question, CGCGGTAC this time
a: Met

q: Same question, ACCCGCCG this time
a: Met

q: Same question, GCCCGCCA this time
a: Not met

q: Same question, GTTAGAAC this time
a: Not met

q: Same question, CCCCGCCG this time
a: Met

q: Same question, AGCGGTAC this time
a: Met

q: Same question, GGGAGTGA this time
a: Not met

q: Same question, AAGTGCCC this time
a: Not met

q: Same question, TCCCGCCA this time
a: Not met

q: Same question, CCTCCATC this time
a: Not met

q: Same question, AAGTGCCA this time
a: Not met

q: Same question, CTCGGAGA this time
a: Not met

q: Same question, ATGCCCAA this time
a: Not met

q: Same question, AAATGCCG this time
a: Met
